- tested.on: WRN D1D2RH (Asn517–Pro1238) (Homo sapiens, UniProt Q14191)
- Construct: 10 nM WRN D1D2RH (protein construct (Asn517–Pro1238)); His tag (N, cleaved yes); ZZ tag (N, cleaved yes); made in house; host or cells: Sf21 insect cells (baculovirus)
- Sequence (Q14191 517-1238): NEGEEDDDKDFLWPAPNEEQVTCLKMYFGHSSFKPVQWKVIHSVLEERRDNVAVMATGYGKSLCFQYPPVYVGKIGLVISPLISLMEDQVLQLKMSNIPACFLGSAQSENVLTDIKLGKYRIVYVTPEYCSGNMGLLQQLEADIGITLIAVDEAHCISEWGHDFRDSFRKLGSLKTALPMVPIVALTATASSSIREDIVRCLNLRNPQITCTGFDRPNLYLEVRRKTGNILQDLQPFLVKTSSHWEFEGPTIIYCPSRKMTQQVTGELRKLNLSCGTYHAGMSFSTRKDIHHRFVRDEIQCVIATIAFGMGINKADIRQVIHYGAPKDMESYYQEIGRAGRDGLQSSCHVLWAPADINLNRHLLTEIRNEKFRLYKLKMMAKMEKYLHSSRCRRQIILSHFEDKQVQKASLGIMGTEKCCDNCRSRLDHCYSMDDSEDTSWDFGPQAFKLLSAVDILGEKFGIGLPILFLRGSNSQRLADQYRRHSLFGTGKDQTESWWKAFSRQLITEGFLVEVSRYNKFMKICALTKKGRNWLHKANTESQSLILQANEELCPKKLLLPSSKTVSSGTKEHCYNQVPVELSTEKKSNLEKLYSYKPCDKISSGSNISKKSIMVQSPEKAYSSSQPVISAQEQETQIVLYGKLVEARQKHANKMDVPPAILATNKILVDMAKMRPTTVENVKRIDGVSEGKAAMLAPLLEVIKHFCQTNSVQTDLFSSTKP
- protocol.details: ATPase activity analysis, ADP-Glo
- Assay type: biochemical
- conditions: Fig. 1b; ATP concentration not given; read-out: ATPase IC50
value.kind: pIC50
Please treat pIC50 as minus the base-10 logarithm of the molar concentration.

Consider the compound Cc1cccc(NC(=O)Cn2c(C)cc(=O)n3nc(-c4cccs4)nc23)c1C and give its measured pIC50. 4.66

----------
- protocol.details: HRO761 blood PK in SW48 tumour-bearing mice
- Assay type: in vivo, mouse
- conditions: female, mouse, whole blood, oral, 120 mg/kg, Free HRO761 blood concentration; 4 h; single mouse
value.kind: concentration at 4 h (nM)
Give the value, in units of nM, as a plain number.

Consider the molecule CCc1c(N2CCN(C(=O)c3ncnc(C)c3O)CC2)c(=O)n2nc(C3=CCOCC3)nc2n1CC(=O)Nc1ccc(C(F)(F)F)cc1Cl [HRO761] and give its measured concentration at 4 h. 496

----------
- protocol.details: HRO761 blood PK in SW48 tumour-bearing mice
- Format: in vivo, mouse
- conditions: female, mouse, whole blood, oral, 120 mg/kg, Free HRO761 blood concentration, Mean; 1 h
value.kind: concentration at 1 h
Express your answer as a number followed by its unit.

Consider the compound CCc1c(N2CCN(C(=O)c3ncnc(C)c3O)CC2)c(=O)n2nc(C3=CCOCC3)nc2n1CC(=O)Nc1ccc(C(F)(F)F)cc1Cl and give its measured concentration at 1 h. 13.9 µM

----------
- tested.on: RecQ5 (Homo sapiens, UniProt O94762)
- Sequence (O94762 11-453): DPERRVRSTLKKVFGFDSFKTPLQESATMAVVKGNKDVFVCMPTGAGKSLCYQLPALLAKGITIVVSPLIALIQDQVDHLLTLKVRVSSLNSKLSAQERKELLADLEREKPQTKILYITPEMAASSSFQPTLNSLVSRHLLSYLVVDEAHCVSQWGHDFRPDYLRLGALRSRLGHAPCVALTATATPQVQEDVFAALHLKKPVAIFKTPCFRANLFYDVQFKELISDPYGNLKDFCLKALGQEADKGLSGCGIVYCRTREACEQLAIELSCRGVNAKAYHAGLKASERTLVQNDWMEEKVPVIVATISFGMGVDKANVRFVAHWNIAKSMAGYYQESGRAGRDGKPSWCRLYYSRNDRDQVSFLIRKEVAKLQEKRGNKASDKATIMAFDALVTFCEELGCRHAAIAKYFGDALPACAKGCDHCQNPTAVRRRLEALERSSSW
value.kind: IC50

Query the reported IC50 for RecQ5 (Homo sapiens, UniProt O94762); item: CCc1c(N2CCN(C(=O)c3ncnc(C)c3O)CC2)c(=O)n2nc(C3=CCOCC3)nc2n1CC(=O)Nc1ccc(C(F)(F)F)cc1Cl > 100 µM

----------
- tested.on: RecQ1 (Homo sapiens, UniProt P46063)
- Sequence (P46063 62-482): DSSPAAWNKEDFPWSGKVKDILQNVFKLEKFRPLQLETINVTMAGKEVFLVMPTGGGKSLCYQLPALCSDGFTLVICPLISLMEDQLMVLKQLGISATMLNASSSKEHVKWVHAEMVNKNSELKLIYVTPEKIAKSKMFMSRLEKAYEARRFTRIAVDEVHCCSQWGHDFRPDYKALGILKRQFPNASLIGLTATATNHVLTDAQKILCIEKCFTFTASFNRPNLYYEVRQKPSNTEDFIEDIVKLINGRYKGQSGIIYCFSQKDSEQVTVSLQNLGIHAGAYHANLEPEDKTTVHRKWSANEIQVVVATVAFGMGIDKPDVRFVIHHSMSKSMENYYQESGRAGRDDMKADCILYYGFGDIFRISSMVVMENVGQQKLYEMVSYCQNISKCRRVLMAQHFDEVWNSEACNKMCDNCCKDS
pIC50: −log10 of the molar value.
value.kind: pIC50

Consider the molecule CCc1c(N2CCN(C(=O)c3ncnc(C)c3O)CC2)c(=O)n2nc(C3=CCOCC3)nc2n1CC(=O)Nc1ccc(C(F)(F)F)cc1Cl [HRO761] and give its measured pIC50. < 4.00

----------
- protocol.details: HRO761 blood PK in SW48 tumour-bearing mice
- Format: in vivo, mouse
- conditions: female, mouse, whole blood, oral, 40 mg/kg, Free HRO761 blood concentration; 4 h; single mouse
value.kind: concentration at 4 h (nM)
Give the value, in units of nM, as a plain number.

Consider the compound CCc1c(N2CCN(C(=O)c3ncnc(C)c3O)CC2)c(=O)n2nc(C3=CCOCC3)nc2n1CC(=O)Nc1ccc(C(F)(F)F)cc1Cl and give its measured concentration at 4 h. 124

----------
- protocol.details: Compound 3 blood PK in SW48 tumour-bearing mice
- Type: in vivo, mouse
- conditions: female, mouse, whole blood, oral, 150 mg/kg, 150mg/kg BID; 0.5 h; single mouse; read-out: Total blood concentration
value.kind: concentration at 0.5 h (µM)
Give the value, in units of µM, as a plain number.

Consider the compound CCc1c(N2CCN(C(=O)c3ncccc3O)CC2)c(=O)n2nc(C3=CCOCC3)nc2n1CC(=O)Nc1ccc(C(F)(F)F)cc1C and give its measured concentration at 0.5 h. 16.5

----------
- protocol.details: Compound 3 blood PK in SW48 tumour-bearing mice
- Type: in vivo, mouse
- conditions: female, mouse, whole blood, oral, 50 mg/kg, 50mg/kg BID; 0.5 h; single mouse; read-out: Total blood concentration
- Experimental: All animal studies were conducted in accordance with ethics and procedures covered by permit BS-2275 and BS-1975 issued by the Kantonales Veterinäramt Basel-Stadt and in strict adherence to guidelines of the Eidgenössisches Tierschutzgesetz and the Eidgenössische Tierschutzverordnung, Switzerland. All animal studies were approved by the internal ethics committee. All animals had access to food and water ad libitum and were identified with transponders. […]
value.kind: concentration at 0.5 h (µM)
Give the value, in units of µM, as a plain number.

Consider the compound CCc1c(N2CCN(C(=O)c3ncccc3O)CC2)c(=O)n2nc(C3=CCOCC3)nc2n1CC(=O)Nc1ccc(C(F)(F)F)cc1C and give its measured concentration at 0.5 h. 6.5

----------
- protocol.details: Compound 3 blood PK in SW48 tumour-bearing mice
- Assay type: in vivo, mouse
- conditions: female, mouse, whole blood, oral, 150 mg/kg, 150mg/kg BID; 8 h; read-out: Mean total blood concentration
value.kind: concentration at 8 h
Express your answer as a number followed by its unit.

Consider the compound CCc1c(N2CCN(C(=O)c3ncccc3O)CC2)c(=O)n2nc(C3=CCOCC3)nc2n1CC(=O)Nc1ccc(C(F)(F)F)cc1C and give its measured concentration at 8 h. 0.35 µM

----------
- protocol.details: HRO761 blood PK in SW48 tumour-bearing mice
- Assay type: in vivo, mouse
- conditions: female, mouse, whole blood, oral, 20 mg/kg, Free HRO761 blood concentration, Mean, 20mg/kg po, qd; 0.5 h
value.kind: concentration at 0.5 h (nM)
Give the value, in units of nM, as a plain number.

Consider the compound CCc1c(N2CCN(C(=O)c3ncnc(C)c3O)CC2)c(=O)n2nc(C3=CCOCC3)nc2n1CC(=O)Nc1ccc(C(F)(F)F)cc1Cl [HRO761] and give its measured concentration at 0.5 h. 1160

----------
- protocol.details: HRO761 blood PK in SW48 tumour-bearing mice
- Assay type: in vivo, mouse
- conditions: female, mouse, whole blood, oral, 40 mg/kg, Free HRO761 blood concentration, Mean; 0.5 h
value.kind: concentration at 0.5 h (µM)
Give the value, in units of µM, as a plain number.

Consider the compound CCc1c(N2CCN(C(=O)c3ncnc(C)c3O)CC2)c(=O)n2nc(C3=CCOCC3)nc2n1CC(=O)Nc1ccc(C(F)(F)F)cc1Cl and give its measured concentration at 0.5 h. 3.14

----------
- protocol.details: HRO761 blood PK in SW48 tumour-bearing mice
- Format: in vivo, mouse
- conditions: female, mouse, whole blood, po, 10 mg/kg; read-out: AUCb, u above GI90, u
value.kind: AUC (µM·h)
Give the value, in units of µM·h, as a plain number.

Consider the molecule CCc1c(N2CCN(C(=O)c3ncnc(C)c3O)CC2)c(=O)n2nc(C3=CCOCC3)nc2n1CC(=O)Nc1ccc(C(F)(F)F)cc1Cl and give its measured AUC. 0.09

----------
- protocol.details: Compound 3 blood PK in SW48 tumour-bearing mice
- Assay type: in vivo, mouse
- conditions: female, mouse, whole blood, oral, 15 mg/kg, 15mg/kg BID; 8 h; read-out: Mean total blood concentration
value.kind: concentration at 8 h (nM)
Give the value, in units of nM, as a plain number.

Consider the compound CCc1c(N2CCN(C(=O)c3ncccc3O)CC2)c(=O)n2nc(C3=CCOCC3)nc2n1CC(=O)Nc1ccc(C(F)(F)F)cc1C [compound 3] and give its measured concentration at 8 h. 140

----------
- protocol.details: HRO761 blood PK in SW48 tumour-bearing mice
- Format: in vivo, mouse
- conditions: female, mouse, whole blood, oral, 40 mg/kg, Free HRO761 blood concentration; 8 h; single mouse
value.kind: concentration at 8 h
Express your answer as a number followed by its unit.

Consider the compound CCc1c(N2CCN(C(=O)c3ncnc(C)c3O)CC2)c(=O)n2nc(C3=CCOCC3)nc2n1CC(=O)Nc1ccc(C(F)(F)F)cc1Cl and give its measured concentration at 8 h. 178 nM

----------
- protocol.details: Compound 3 blood PK in SW48 tumour-bearing mice
- Assay type: in vivo, mouse
- conditions: female, mouse, whole blood, oral, 50 mg/kg, 50mg/kg BID; 0.5 h; read-out: Mean total blood concentration
- Method: All animal studies were conducted in accordance with ethics and procedures covered by permit BS-2275 and BS-1975 issued by the Kantonales Veterinäramt Basel-Stadt and in strict adherence to guidelines of the Eidgenössisches Tierschutzgesetz and the Eidgenössische Tierschutzverordnung, Switzerland. All animal studies were approved by the internal ethics committee. All animals had access to food and water ad libitum and were identified with transponders. […]
value.kind: concentration at 0.5 h (µM)
Give the value, in units of µM, as a plain number.

Consider the molecule CCc1c(N2CCN(C(=O)c3ncccc3O)CC2)c(=O)n2nc(C3=CCOCC3)nc2n1CC(=O)Nc1ccc(C(F)(F)F)cc1C and give its measured concentration at 0.5 h. 7.34

----------
- tested.on: WRN D1D2RH (Asn517–Pro1238) (Homo sapiens, UniProt Q14191)
- Construct: 10 nM WRN D1D2RH (protein construct (Asn517–Pro1238)); His tag (N, cleaved yes); ZZ tag (N, cleaved yes); made in house; host or cells: Sf21 insect cells (baculovirus)
- protocol.details: ATPase activity analysis, ADP-Glo
- Type: biochemical
- conditions: Extended Data Fig. 2b; read-out: Biochemical IC50 ATPase WRN D1D2RH
value.kind: IC50 (µM)
Give the value, in units of µM, as a plain number.

Consider the compound CC(=O)N1CCN(c2c(C)n(CC(=O)Nc3ccc(Cl)cc3)c3nc(N4CCN(C(=O)OC(C)(C)C)CC4)nn3c2=O)CC1 and give its measured IC50. 0.27
